- target-desc: T1, human TREM2 (human, UniProt Q9NZC2 19-174, limits assumed)
- T1 sequence: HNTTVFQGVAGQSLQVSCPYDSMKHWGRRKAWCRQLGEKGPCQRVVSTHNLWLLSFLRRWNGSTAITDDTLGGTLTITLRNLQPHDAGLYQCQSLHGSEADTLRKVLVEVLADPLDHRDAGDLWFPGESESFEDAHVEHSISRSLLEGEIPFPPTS
- assay-method-text: yeast-displayed Fab FACS, 2nd screen 100 nM
measured-property: binding signal fold over 6E7 parental (fold)

binder	observed
V9 (Fab, V domains shown) VH: EVQLVQSGAEVKKPGESLKISCKGSGYSFTSYWIAWVRQMPGKGLEWMGIIYPGDSDTRYSPSFQGQVTISADKSISTAYLQWSSLKASDTAMYFCARQRGFYYDSSDYFDYWGQGTLVTVSS VL: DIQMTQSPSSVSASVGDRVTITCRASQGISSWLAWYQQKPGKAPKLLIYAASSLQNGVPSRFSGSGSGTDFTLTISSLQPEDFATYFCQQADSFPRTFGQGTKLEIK	0.54
V71 (Fab, V domains shown) VH: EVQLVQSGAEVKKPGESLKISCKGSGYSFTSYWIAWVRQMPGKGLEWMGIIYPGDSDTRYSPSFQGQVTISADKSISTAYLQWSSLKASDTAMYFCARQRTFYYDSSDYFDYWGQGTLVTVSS VL: DIQMTQSPSSVSASVGDRVTITCRASQGISSWLAWYQQKPGKAPKLLIYAASSLQNGVPSRFSGSGSGTDFTLTISSLQPEDFATYFCQQADSEPRTFGQGTKLEIK	0.48
V8 (Fab, V domains shown) VH: EVQLVQSGAEVKKPGESLKISCKGSGYSFTSYWIAWVRQMPGKGLEWMGIIYPGDSDTKYSPSFQGQVTISADKSISTAYLQWSSLKASDTAMYFCARQRTFYYDSSDYFDYWGQGTLVTVSS VL: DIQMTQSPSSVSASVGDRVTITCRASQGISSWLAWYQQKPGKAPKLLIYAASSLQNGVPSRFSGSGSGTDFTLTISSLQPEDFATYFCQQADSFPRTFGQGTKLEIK	0.77
